Source of measurements: patent US9359344B2

Recorded antibacterial activity Enterococcus faecalis for the following compounds
# Test system: Enterococcus faecalis
# method: In vitro antibacterial activity, standard agar dilution method, Enterococcus faecalis
# Format: cell-based
# stated_conditions: clinical strains
All answers are understood in µg/mL, so give the number only.

Known results for compounds:
[[record]]
compound = "CC(=O)NC[C@H]1CN(c2ccc(N3CCOCC3)c(F)c2)C(=O)O1 [linezolid, Linezolid, reference compound]"
tested_target = "Enterococcus faecalis"
reported = 4

[[record]]
compound = "CN(c1ccc(-c2ccc(N3C[C@H](CO)OC3=O)cc2F)cn1)c1nnnn1C"
tested_target = "Enterococcus faecalis"
reported = 1

[[record]]
compound = "Cn1cc(Nc2ccc(-c3ccc(N4C[C@H](CO)OC4=O)cc3F)cn2)nn1"
tested_target = "Enterococcus faecalis"
reported = 2


Request: antibacterial activity Enterococcus faecalis, test system Enterococcus faecalis, entry CN(c1ccc(-c2ccc(N3C[C@H](CO)OC3=O)cc2F)cn1)c1nnn(C)n1
1
